- System: Cyclin-dependent kinase 2 (Homo sapiens) (UniProt P24941)
- Study conditions: Compound concentration 20.0 uM, Protein concentration 2.0 uM, Result type QC Liability
- Description: Thermal Shift Assay. Domain: start/stop: M1-L298
Class key for ΔTm values: band A (below 0.2 °C), band B (0.2 °C to below 0.7 °C), band C (0.7 °C or more)

O=C1COc2cc(C(=O)N(Cc3ccc(C(=O)Nc4ccncn4)cc3)C3CC3)ccc2N1	band B
CCC(C)(C)CC[C@H](NC(=O)N1CCOCC1)C(=O)NC1(C#N)CCN(C)CC1	band C
Cc1cc(CN)cc(C)c1-c1ncn(C)c1-c1ccnc2cc(F)ccc12	band B
COc1cc2nc(C)nc(N[C@H](C)c3cc(N)cc(C(F)(F)F)c3)c2cc1O[C@H]1CCOC1	band C

Exercise: Band for CC(=O)N1CCN([C@H]2CCC[C@@H](NC(=O)c3cc4c(F)ccc(C)c4[nH]3)C2)CC1 ?
Solution: band C

Exercise: Band for COc1cccc(Cn2cc(C(=O)Nc3ccc(C)c(S(=O)(=O)N4CCOCC4)c3)c(-c3ccc(C)cc3)n2)c1 ?
Solution: band C

Exercise: Band for CCOc1cc(CC(=O)N[C@@H](CC(C)C)c2ccccc2N2CCCCC2)ccc1C(=O)O ?
Solution: band A
